- Test system: hepatitis C replicon
- assay.remarks: hepatitis C replicon EC50 assay
- Assay type: cell-based
- cond: Hepatitis C virus; hepatitis C replicon; read-out: EC50
Reported values of EC50 for individual entries
measure.name: EC50

{"test.smiles": "CC(C)n1c(O[C@@H]2C[C@H]3C(=O)N[C@]4(C(=O)NS(=O)(=O)C5(C)CC5)C[C@H]4/C=C\\CCCCC[C@H](NC(=O)OC(C)(C)C)C(=O)N3C2)nc2c(-c3nc(Cc4cccc(Br)c4)cs3)cccc21", "measurement.target": "hepatitis C replicon", "measure.name": "EC50", "value.observed": "10 to 100 nM"}
{"test.smiles": "CC(C)c1csc(-c2cc3c(c(O[C@@H]4C[C@H]5C(=O)N[C@]6(C(=O)NS(=O)(=O)C7(C)CC7)C[C@H]6/C=C\\CCCCC[C@H](NC(=O)OC(C)(C)C)C(=O)N5C4)n2)CCCC3)n1", "measurement.target": "hepatitis C replicon", "measure.name": "EC50", "value.observed": "> 100 nM"}
{"test.smiles": "CC(C)c1ccc(Cc2csc(-c3cccc4c3nc(O[C@@H]3C[C@H]5C(=O)N[C@]6(C(=O)NS(=O)(=O)N(C)C)C[C@H]6/C=C\\CCCCC[C@H](NC(=O)OC(C)(C)C)C(=O)N5C3)n4C(C)C)n2)cc1", "measurement.target": "hepatitis C replicon", "measure.name": "EC50", "value.observed": "10 to 100 nM"}
{"test.smiles": "CC(C)n1c(O[C@@H]2C[C@H]3C(=O)N[C@]4(C(=O)NS(=O)(=O)N(C)C)C[C@H]4/C=C\\CCCCC[C@H](NC(=O)OC(C)(C)C)C(=O)N3C2)nc2c(-c3cnccn3)cccc21", "measurement.target": "hepatitis C replicon", "measure.name": "EC50", "value.observed": "< 10 nM"}
{"test.smiles": "COc1ccc2c(O[C@@H]3C[C@H]4C(=O)N[C@]5(C(=O)NS(=O)(=O)C6(C)CC6)C[C@H]5/C=C\\CCCCC[C@H](N)C(=O)N4C3)cc(C(C)C)nc2c1C", "measurement.target": "hepatitis C replicon", "measure.name": "EC50", "value.observed": "> 100 nM"}
{"test.smiles": "CC(C)n1c(O[C@@H]2C[C@H]3C(=O)N[C@]4(C(=O)NS(=O)(=O)C5(C)CC5)C[C@H]4/C=C\\CCCCC[C@H](N)C(=O)N3C2)nc2c(-c3nc(C4CCCCC4)cs3)cccc21", "measurement.target": "hepatitis C replicon", "measure.name": "EC50", "value.observed": "> 100 nM"}
{"test.smiles": "CC(C)c1csc(-c2cc(O[C@@H]3C[C@H]4C(=O)N[C@]5(C(=O)NS(=O)(=O)C6(C)CC6)C[C@H]5/C=C\\CCCCC[C@H](N)C(=O)N4C3)ccn2)n1", "measurement.target": "hepatitis C replicon", "measure.name": "EC50", "value.observed": "> 100 nM"}
{"test.smiles": "COc1cccc(-c2csc(-c3cccc4c3nc(O[C@@H]3C[C@H]5C(=O)N[C@]6(C(=O)NS(=O)(=O)C7(C)CC7)C[C@H]6/C=C\\CCCCC[C@H](NC(=O)OC(C)(C)C)C(=O)N5C3)n4C(C)C)n2)c1", "measurement.target": "hepatitis C replicon", "measure.name": "EC50", "value.observed": "< 10 nM"}
{"test.smiles": "CC(C)(C)OC(=O)N[C@H]1CCCCC/C=C\\[C@@H]2C[C@@]2(C(=O)NS(=O)(=O)C2(C)CC2)NC(=O)[C@@H]2C[C@@H](Oc3nc(-c4ccccc4)cc4c3CCCC4)CN2C1=O", "measurement.target": "hepatitis C replicon", "measure.name": "EC50", "value.observed": "> 100 nM"}
